Origin of values: patent US9556378B2

Assay: Solubility of chelate ester in water
Format: physicochemical
Settings: pH = 0.5
MEASURE: Soluble in water (pH = 0.5)

A selection of reference data follows.
COC(=O)CN(CCN(CC(=O)OC)CC(=O)OC)CC(=O)OC [EDTA 4 methyl ester, EDTA-tetramethyl ester, reference compound] : Yes
CCCCOC(=O)CCC(C(=O)OCCCC)N(CC(=O)OCCCC)CC(=O)OCCCC (centres unmarked) [GLDA 4 butyl ester, GLDA-tetrabutyl ester] : no (2 phases)
CCCOC(=O)CN(CCN(CC(=O)OCCC)CC(=O)OCCC)CC(=O)OCCC [EDTA 4 propyl ester, EDTA-tetrapropyl ester, reference compound] : Yes
CCCCOCCOC(=O)CCC(C(=O)OCCOCCCC)N(CC(=O)OCCOCCCC)CC(=O)OCCOCCCC (centres unmarked) [GLDA 4 EGMBE, GLDA-tetraEMGBE ester] : no (2 phases)

Exercise: May I ask what Soluble in water (pH = 0.5) has been recorded for COC(=O)CCC(C(=O)OC)N(CC(=O)OC)CC(=O)OC (centres unmarked) [GLDA 4 methyl ester, GLDA-tetramethyl ester] ?
Key: Yes

Exercise: May I ask what Soluble in water (pH = 0.5) has been recorded for COC(=O)CN(CC(=O)OC)C(C)C(=O)OC (centres unmarked) [MGDA 3 methyl ester, MGDA-trimethyl ester] ?
Key: Yes

Exercise: May I ask what Soluble in water (pH = 0.5) has been recorded for CCCOC(=O)CCC(C(=O)OCCC)N(CC(=O)OCCC)CC(=O)OCCC (centres unmarked) [GLDA 4 propyl ester, GLDA-tetrapropyl ester] ?
Key: no (2 phases)

Exercise: May I ask what Soluble in water (pH = 0.5) has been recorded for CCCCOC(=O)CN(CCN(CC(=O)OCCCC)CC(=O)OCCCC)CC(=O)OCCCC [EDTA 4 butyl ester, EDTA-tetrabutyl ester, reference compound] ?
Key: no (2 phases)
